Target: T1, TraIN308 (relaxase domain) (Escherichia coli plasmid R1, UniProt Q6TDU5 1-308)
T1 sequence: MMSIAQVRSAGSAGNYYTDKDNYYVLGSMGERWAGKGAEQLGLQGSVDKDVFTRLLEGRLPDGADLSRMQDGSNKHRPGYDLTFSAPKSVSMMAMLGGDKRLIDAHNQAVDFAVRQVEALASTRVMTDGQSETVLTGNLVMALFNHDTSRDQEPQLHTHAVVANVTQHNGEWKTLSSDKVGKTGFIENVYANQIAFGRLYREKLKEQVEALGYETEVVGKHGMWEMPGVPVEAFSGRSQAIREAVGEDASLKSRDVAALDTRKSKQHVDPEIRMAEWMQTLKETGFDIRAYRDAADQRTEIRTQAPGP
Assay: fluorescence intensity titration; unit not printed with value; nM from titration range; EMSA: 10 mM Tris-HCl pH 7.5, 50 mM NaCl, 0.005% NP-40, 1 mM DTT, 1 mM EDTA, 25 C, 20 min (DNA 20 nM in Methods, 4 nM in Fig 5 legend); fluorescence: 20 mM Tris-HCl pH 7.5, 100 mM NaCl, 1 mM EDTA, 25 C, 4 nM oriT17*, 0-100 nM TraI
Settings: protein: recombinant; label: 3'-TAMRA
MEASURED_PROPERTY: Kd (nM)
Form entry: value (nM) — number only.

In one line, give reported Kd of the entry TTTGCGTGGGGTGTGGT (ssDNA) [oriT17*] .
0.87
